measured on: UniProt:P08913
Sequence (P08913 1-465): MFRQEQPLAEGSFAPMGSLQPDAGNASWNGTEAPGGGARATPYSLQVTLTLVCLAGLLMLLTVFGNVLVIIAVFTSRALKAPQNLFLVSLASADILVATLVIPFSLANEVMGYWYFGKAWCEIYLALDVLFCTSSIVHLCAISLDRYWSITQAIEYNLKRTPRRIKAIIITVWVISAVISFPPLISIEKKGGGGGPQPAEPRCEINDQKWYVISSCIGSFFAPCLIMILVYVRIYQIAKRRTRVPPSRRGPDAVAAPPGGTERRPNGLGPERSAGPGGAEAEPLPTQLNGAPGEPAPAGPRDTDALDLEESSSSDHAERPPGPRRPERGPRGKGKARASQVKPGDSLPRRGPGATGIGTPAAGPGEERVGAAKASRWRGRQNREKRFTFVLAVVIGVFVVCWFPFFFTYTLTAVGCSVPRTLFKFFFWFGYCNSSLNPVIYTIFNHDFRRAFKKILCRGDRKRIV
measurement description: Radioligand binding, adrenergic α2A (Protocol Group B)
Parameters: purchased Milipore (Millipore)
experimental context: 0.3 μM compound; Protocol Group B; read-out: Percentage inhibition of ligand binding, Adrenergic α2A (0.3 μM)
measured attribute: inhibition at 0.3 µM (%)

[
  {
    "molecule": "Cc1cc(F)c2c(c1)c1c(n2CC(C)(O)c2cccnc2)CCN2CCCC12 (single isomer, unassigned) [79b]",
    "measured attribute": "inhibition at 0.3 µM",
    "value": 74
  },
  {
    "molecule": "Cc1ccc2c(c1)c1c(n2CC(O)c2cccnc2)C(O)CN(C)C1 (stereo not shown)",
    "measured attribute": "inhibition at 0.3 µM",
    "value": 4
  },
  {
    "molecule": "Cc1ccc2c(c1)c1c(n2CC(OC(C)C)c2ccncc2)CCN(C)C1 (stereo not shown)",
    "measured attribute": "inhibition at 0.3 µM",
    "value": 53
  }
]

a: Cc1ccc2c(c1)c1c(n2CC(C)(O)c2cccnc2)CCN(CC(F)F)C1 (stereo not shown)
b: Cc1cc2c3c(n(CC(O)c4ccncc4)c2cc1Cl)CCN1CCCC31 (stereo not shown)
Select the item with the higher value of inhibition at 0.3 µM from the options a and b listed. Reply briefly: the label of your chosen item. b
(b: 89%, a: -1%)

1: Cc1ccc2c(c1)c1c(n2CC(C)(O)c2cccnc2)CC2CCCN2C1 (single isomer, unassigned) [38b]
2: Cc1ccc2c(c1)c1c(n2CC(C)(O)c2ccncc2)CCN2CCCC12 (single isomer, unassigned) [13c]
Sorting ascending by inhibition at 0.3 µM, which comes first: 1 or 2 ? Reply briefly: the label of your chosen item. 2
(2: 21%, 1: 42%)

I: Cc1ccc2c(c1)c1c(n2CC(O)c2ccncc2)CN(C)C2CCCC12 (single isomer, unassigned) [36a]
II: OC(Cn1c2c(c3cc(F)ccc31)C1CCCN1CC2)c1ccncc1 (single isomer, unassigned) [18b]
III: Cc1ccc2c(c1)c1c(n2CC(C)(O)c2cccnc2)CCN(C)C1CO (single isomer, unassigned) [16a]
Could you please sort these 3 entries by inhibition at 0.3 µM from high to low? Answer by listing the labels in the order asked for. II, III, I
